Assay: in vitro
Settings: male, Sprague-Dawley, rat, 20 min, 1 μM
Description: Reaction mixture, minus cofactors, was prepared as described below. Test article was added into the reaction mixture at a final concentration of 1 μM. […] Half-lives were calculated using GraphPad software, fitting to a single-phase exponential decay equation. Reaction mixture, minus cofactors, was prepared as described below. […] Half-lives were calculated using GraphPad software, fitting to a single-phase exponential decay equation. […]
Observed property: Concentration (μM) of analyte PEA, 20 min (µM)
All answers are understood in µM, so give the number only.

Challenge: So what's the measured Concentration (μM) of analyte PEA, 20 min for this one? CCCCCCCCCCCCCCCC(=O)NCCOC(=O)CCC(=O)OC[C@H]1O[C@@](CO)(O[C@H]2O[C@H](CO)[C@@H](O)[C@H](O)[C@H]2O)[C@@H](O)[C@@H]1O [Compound I-7]
Response given: 0.16

Challenge: So what's the measured Concentration (μM) of analyte PEA, 20 min for this one? CC/C=C\C/C=C\C/C=C\C/C=C\C/C=C\CCCC(=O)OCCNC(=O)CCCCCCCCCCCCCCC [Compound I-5]
Response given: 0.037

Challenge: So what's the measured Concentration (μM) of analyte PEA, 20 min for this one? CCCCCCCCCCCCCCCC(=O)NCCOC(=O)CCC(=O)OCC(O)CO (stereo not shown) [Compound I-9]
Response given: 0.18

Challenge: So what's the measured Concentration (μM) of analyte PEA, 20 min for this one? CCCCC/C=C\C/C=C\CCCCCCCC(=O)OCCNC(=O)CCCCCCCCCCCCCCC [Compound I-6]
Response given: 0.021

Challenge: So what's the measured Concentration (μM) of analyte PEA, 20 min for this one? CCCCCCCCCCCCCCCC(=O)NCCOC(=O)CCC(=O)OCC(COC(=O)CCC)OC(=O)CCC (stereo not shown) [Compound I-11]
Response given: 0.091

Challenge: So what's the measured Concentration (μM) of analyte PEA, 20 min for this one? CCCCCCCCCCCCCCCC(=O)NCCOC(=O)CCC [Compound I-2]
Response given: 0.17

Challenge: So what's the measured Concentration (μM) of analyte PEA, 20 min for this one? CCCCCCCCCCCCCCCC(=O)NCCOC(=O)CCC(=O)OCC(COC(=O)CCCCCCC)OC(=O)CCCCCCC (stereo not shown) [Compound I-3, PEA-Succinate-Glycerol-Di-Caprylic]
Response given: 0.033

###

Test: Intestinal S9 fraction stability, dog
Conditions: male, Beagle, dog, s9, CLint, Control Compound; Dog intestinal S9 fraction
Observed property: microsomal CLint

Challenge: So what's the measured microsomal CLint for this one? C[C@]12CC[C@H]3[C@@H](CCC4=CC(=O)CC[C@@]43C)[C@@H]1CC[C@@H]2O [Testosterone, testosterone, reference compound]
Response given: < 11.6 µL/min/mg

###

Experiment: in vitro
Conditions: male, CD-1, mouse, s9, Half-life (min)
Listed below: half-life at 1 μM values for each entry.

Use the examples below as a reference point.
CCCCC/C=C\C/C=C\CCCCCCCC(=O)OCCNC(=O)CCCCCCCCCCCCCCC: > 60 min
CCCCCCCCCCCCCCCC(=O)NCCOC(=O)CCC(=O)OCC(COC(=O)CCCCCCC)OC(=O)CCCCCCC (centres unmarked) [Compound I-3, PEA-Succinate-Glycerol-Di-Caprylic]: > 60 min
CCCCCCCCCCCCCCCC(=O)NCCOC(=O)CCC(=O)OCC(O)CO (centres unmarked): < 1 min
CCCCCCCCCCCCCCCC(=O)NCCOC(=O)CCC(=O)OCC(COC(=O)CCC)OC(=O)CCC (centres unmarked): < 1 min

// next item, half-life at 1 μM requested
Challenge: So what's the measured half-life at 1 μM for this one? CCCCCCCCCCCCCCCC(=O)NCCOC(=O)CCC
Response given: < 1 min
